biological target: HIV-2 IN G140S/Q148R (T3) (Human immunodeficiency virus type 2 subtype A, UniProt P04584, A1212T/E1378D/G1311S/I1304V/I1351V/I1372T/M1463V/Q1319R/R1205K/R1395Q/S1188G/S1210T/T1231V/V1190I); construct: His-tag (pET-15b) (N); experiment: strand transfer inhibition, IN from clinical isolate T3; conditions: clinical isolate T3, G140S/Q148R double mutant; IC50 not reached at concentrations up to 1 μM
Sequence (P04584 1172-1464 S1188G/V1190I/R1205K/S1210T/A1212T/T1231V/I1304V/G1311S/Q1319R/I1351V/I1372T/E1378D/R1395Q/M1463V): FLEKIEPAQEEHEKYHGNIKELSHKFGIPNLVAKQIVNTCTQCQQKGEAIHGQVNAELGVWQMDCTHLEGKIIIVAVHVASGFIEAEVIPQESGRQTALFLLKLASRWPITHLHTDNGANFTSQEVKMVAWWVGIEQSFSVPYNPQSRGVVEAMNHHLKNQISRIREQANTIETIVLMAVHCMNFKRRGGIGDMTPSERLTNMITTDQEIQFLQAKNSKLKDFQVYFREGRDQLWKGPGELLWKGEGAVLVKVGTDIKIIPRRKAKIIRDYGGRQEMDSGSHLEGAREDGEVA

[
  {
    "compound": "Cc1nnc(C(=O)NC(C)(C)c2nc(C(=O)NCc3ccc(F)cc3)c(O)c(=O)n2C)o1 [RAL, raltegravir]",
    "IC50": "> 1000 nM"
  }
]
